# inhibition per entry
TEST DETAILS: A qHTS for Small Molecule Inhibitors of Shiga Toxin; note: 0% is about no effect
TEST PARAMETERS: Vero cells, Shiga toxin protein synthesis inhibition reporter; at 38.7 µM, active compounds read high
About 27,000 (9.3%) of roughly 290,000 compounds were called active. The full list was thinned out, with actives kept by preference.
Just the number in %, nothing appended.

1. CC(CC(=O)N1CCN(S(=O)(=O)c2ccccc2)CC1)n1cncn1 (configuration not stated) | -9.3
2. O=C(Oc1ccc(C(=S)N2CCOCC2)cc1)c1ccc(F)cc1 | -4.36
3. Cc1cccc(-n2c(O)c(/C=N/N3CCOCC3)c(=O)[nH]c2=S)c1 | -12.5
4. CSc1ccccc1NC(=O)CN(C)CC(=O)Nc1cccc(Br)c1 | -0.946

What value of inhibition has been reported for the following compound? Cc1ccc(NC(=O)Cn2nnc(C(=O)NCc3ccco3)c2N)c(C)c1
-2.94

Also check O=C(Nc1ccc(C(=O)O)cc1)/C(=C\c1ccccc1)NC(=O)c1ccc(Br)cc1
-9.04

Also check CCc1ccc(Nc2nnc(SCC(=O)c3ccc4c(c3)NC(=O)CO4)s2)cc1
32.3

Also check Cc1ccccc1NC(=O)NCc1ccco1
18.7

Also check CCOC(=O)c1cc2n(c1N)-c1ccccc1C2=O
72.9

Also check NC(=O)C1CCCN(CC(=O)N2CCN(c3ccccc3)CC2)C1 (configuration not stated)
-5.2

Also check CCOC(=O)c1ccccc1CN1C(=O)c2ccccc2S1(=O)=O
-3.65

Also check COCCN1CCN(C(=O)c2cc(COc3ccc(F)cc3Cl)on2)CC1
-23.4

Also check C=C(C)C(=O)Nc1cccc(C(C)=O)c1
-10.8

Also check CN(C)S(=O)(=O)c1ccc(C(=O)NCCN=C2NS(=O)(=O)c3ccccc32)cc1
-13.8

Also check CCCn1cc(S(=O)(=O)c2ccc(C)cc2)c(=O)c2cc(OCC)ccc21
3.51

Also check O=C(Nc1cccn(Cc2ccccc2Cl)c1=O)NC1CCCCC1
33

Also check CCc1ccc(-c2nnn(Cc3nc4ccccc4s3)n2)cc1
81

----------
TEST DETAILS: A qHTS for Small Molecule Inhibitors of Shiga Toxin; note: 0% is about no effect
TEST PARAMETERS: Vero cells, Shiga toxin protein synthesis inhibition reporter; at 38.7 µM
About 27,000 (9.3%) of roughly 290,000 compounds were called active. Rule as the data show it: active = inhibition mostly above about 28% (no sharp cut-off); inactive = mostly below about 43%. The full list was thinned out, with actives kept by preference.
Parameter call: string, one of active, inactive

Illustrative cases are given below, each with its answer.
1. Cc1ccc(S(=O)(=O)N2CCN(C(=O)N3CCOCC3)CC2)c(C)c1 | inactive
2. O=c1c(-c2ccccc2)coc2c(CN3CCOCC3)c(O)ccc12 | inactive
3. Cc1c(CCC(=O)O)c(=O)oc2cc3occ(-c4ccccc4)c3cc12 | inactive
4. O=C(N/N=C/c1ccc2c(c1)OCO2)c1ccc(Cn2cc([N+](=O)[O-])cn2)o1 | active
5. Cc1nc(C)c(-c2nnc(-c3cccc(S(=O)(=O)N(C)C)c3)o2)cc1C(=O)NN | inactive
6. O=C(O)c1cc2c(cc1NC(=O)c1c(F)cccc1Cl)OCCCO2 | inactive
7. O=c1c(-c2ccccc2)coc2cc(O)ccc12 | active
8. CC1CCc2c(sc(NC(=O)c3ccc(Cn4cc(Br)cn4)o3)c2C(N)=O)C1 (stereo not given) | inactive

What did the test return for O=C(N/N=C\c1ccc(Br)cc1)c1ccc(Cn2cccn2)o1 ?
inactive

Also check CN(C)c1ccc(/C=N/NC(=O)c2ccc(Cn3cc(Br)cn3)o2)cc1
active

----------
# inhibition per entry
TEST DETAILS: A qHTS for Small Molecule Inhibitors of Shiga Toxin; note: 0% is about no effect
TEST PARAMETERS: Vero cells, Shiga toxin protein synthesis inhibition reporter; at 38.7 µM, active compounds read high
Out of some 290,000 compounds screened, about 27,000 (9.3%) were called active. The entries come from a sample that favours actives as a whole.
Just the number in %, nothing appended.

As a guide, the following entries are already answered.
1) COc1ccc(C(=O)Nc2ccc(NC(=O)C(C)C)nc2)cc1 | 22.3
2) CC(=O)NCCc1nc2cc(NC(=O)c3ccccc3)ccc2n1C | 38.3
3) CCc1cc(C(N)=O)c(NC(=O)c2ccc(OC)cc2)s1 | 33.1
4) O=C(NC1CCCC1)C1CCN(C(=O)Nc2cccc(Cl)c2)CC1 | -5.04

What value of inhibition has been reported for the following molecule? Cc1ccc(NC(=O)c2ccc(Oc3ncccn3)cc2)cc1
54.9

Also check O=C(NC(=S)NC1CCCCC1)c1ccc(Cl)cc1
-12.4

----------
TEST DETAILS: A qHTS for Small Molecule Inhibitors of Shiga Toxin; note: 0% is about no effect
TEST PARAMETERS: Vero cells, Shiga toxin protein synthesis inhibition reporter; at 38.7 µM, active compounds read high
Hit rate of the full screen: of about 290,000 compounds, about 27,000 (9.3%) were called active. The entries come from a sample that favours actives as a whole.
MEASUREMENT LABEL: inhibition (%)
Just the number in %, nothing appended.

1) O=C(COc1ccccc1)N1CCc2ccccc2C1 | 38.7
2) Cc1ccc(Cc2cnc(NC(=O)/C(C#N)=C/c3ccc(-c4cccc([N+](=O)[O-])c4)o3)s2)cc1 | 19.7
3) O=C(NCCCN1CCOCC1)c1cc(-c2cccc(O)c2)on1 | 23.1
4) O=C(Cc1cccc2ccccc12)NCCC1=CCCCC1 | -13.5
5) COc1cccc(N(CC(=O)N2CCc3ccccc3C2)S(C)(=O)=O)c1 | -19.6
6) COc1ccc(C2(O)C(=O)Nc3ccccc32)cc1 (stereo not given) | -10.8
7) CN(c1ccc(C(=O)N2CCc3ccccc3C2)cc1)S(C)(=O)=O | 52.2
8) O=C(O)CN1c2cccc3cccc(c23)S1(=O)=O | -1.09

What value of inhibition has been reported for the following molecule? Cc1ccccc1/C=C\c1nc(O)c([N+](=O)[O-])c(=O)[nH]1
-14.2

Also check Cn1cccc1C(=O)N1CCc2ccccc2C1
36.9

Also check COc1cccc(C(=O)c2cc3ccc(O)cc3oc2=O)c1
21.7

Also check O=C(N/N=C/c1sc(N2CCCCC2)nc1-c1cccs1)c1cccnc1
-9.51

Also check Cc1c(CN2CCC(n3nccc3NC(=O)CCc3ccccc3)CC2)cnn1C
4.45

----------
TEST DETAILS: A qHTS for Small Molecule Inhibitors of Shiga Toxin; note: 0% is about no effect
TEST PARAMETERS: Vero cells, Shiga toxin protein synthesis inhibition reporter; at 38.7 µM, active compounds read high
Among all 290,000 compounds or so, about 27,000 (9.3%) were called active. What follows is part of a selection rich in actives, with near analogues and random picks from the rest.
# inhibition per entry
Just the number in %, nothing appended.

As a guide, the following entries are already answered.
1. COc1ccc2oc(=N)c(C(=O)Nc3ccc(Br)cc3)cc2c1 | 14.3
2. CC(C)C(=O)Nc1ccc2c(c1)oc1ccccc12 | 105
3. O=C(c1cn2ccccc2n1)N1CCc2c([nH]c3ccccc23)C1c1ccccn1 (stereo not given) | 13.1
4. CC(CC(=O)N1CCN(c2ccccc2)CC1)S(=O)(=O)c1ccc2c(c1)NC(=O)CS2 (stereo not given) | 1.51
5. CN(Cc1ccco1)S(=O)(=O)c1nnc(NC(=O)c2ccccc2)s1 | 38.9

What value of inhibition has been reported for the following molecule? O=C(CSc1nc(O)c(Cc2ccccc2)c(=O)[nH]1)Nc1nc2c(s1)CCCC2
40.8

Also check Cc1cccc(C2c3[nH]c4ccccc4c3CCN2C(=O)c2cc(-c3cccn3C)n[nH]2)n1 (stereo not given)
-3.12

Also check O=C1CCC(C(=O)N2CCC(O)(c3ccccc3)CC2)CN1CCc1ccccc1 (stereo not given)
-9.01

Also check O=C(Cn1ncc2c3ccccc3n(Cc3ccccc3)c2c1=O)NCCCN1CCOCC1
10.5

Also check CN(C)C(=O)CCC(=O)N1CCCCC1C(=O)Nc1ccc(Oc2ccccc2F)cc1 (stereo not given)
-6.54

Also check COc1ccc(NC(=O)N2CCCC2C(=O)NCc2ccccc2Cl)cc1 (stereo not given)
-3.06

Also check CCCCCCOC(=O)NCC(O)c1ccccc1 (stereo not given)
85.6

Also check CNS(=O)(=O)c1cccc(C(=O)NC2CCCc3ccccc32)c1 (stereo not given)
2.04

Also check CCOC(=O)c1sc(NC(=O)CSc2nc(O)c(Cc3ccccc3)c(=O)[nH]2)nc1C
107

Also check CC1=C(C(=O)NC2CC(C)(C)Cc3c2cnn3-c2ccc(C)cc2)OCCO1 (stereo not given)
-2.9

Also check CCOC(=O)c1ccc(NC(=O)c2cccnc2)cc1
53.7

Also check Cc1ccc2nc(NC(=O)C3CCN(S(=O)(=O)c4ccc5c(c4)oc(=O)n5C)CC3)sc2c1
-20.5

Also check O=C1CCC(=O)N(c2ccccc2)N1
-5.13

Also check Brc1ccc2nc(N3CCCC3)sc2c1
133

Also check CCOC(=O)c1cc(S(=O)(=O)NCCc2ccc(OC)c(OC)c2)cn1C
-9.15

Also check CCC1C(=O)c2ccccc2N(C)C1=O (stereo not given)
-0.747

Also check Cn1c(SCc2ccc(F)cc2)nnc1-c1ccncc1
3.38

Also check CCc1nn(CC(=O)N2CCN(CC)CC2)c(=O)c2cccn12
-0.821

Also check Cc1nn(-c2ccccc2)c(C)c1NC(=O)CCl
16.7

Also check C[C@@H](NC(=O)[C@@H]1Cc2ccccc2CN1)C(=O)NC1CCCC1
-1.81
